Task for the reader: assign each of the following molecules its reported TGI.
# Tested on: MOLT-4 leukemia
# test.protocol: NCI tumour cell line growth inhibition, 48 h

Ask: What value of TGI has been recorded for this entry: COC(=O)CN1CCN(c2cccc3c2CCCC3)CC1
Reply: > 100 µM

Ask: What value of TGI has been recorded for this entry: COc1ccc(-c2nc3ccccc3c(=O)[nH]2)cc1
Reply: > 100 µM

Ask: What value of TGI has been recorded for this entry: C=CCNC(=S)NNC(=O)c1c(C)nc2sccn12
Reply: > 100 µM

Ask: What value of TGI has been recorded for this entry: COc1cc(-c2nc(-c3ccccc3)c(-c3ccccc3)[nH]2)cc(OC)c1O
Reply: 64.9 µM

Ask: What value of TGI has been recorded for this entry: NCCCN(CCCCN(CCCN)CCCc1ccccc1)CCCc1ccccc1
Reply: 5.21 µM

Ask: What value of TGI has been recorded for this entry: Cc1nn2c(=O)c([N+](=O)[O-])c(/C=C/c3ccc(F)cc3)nc2s1
Reply: 28.6 µM

Ask: What value of TGI has been recorded for this entry: CC(=O)OCC1OC(OCCCOP(=O)(OCCC#N)OCC2OC(n3cnc4c(N)ncnc43)C(OC(=O)c3ccccc3)C2OC(=O)c2ccccc2)C(OC(C)=O)C(OC(C)=O)C1OC(C)=O (stereo not given)
Reply: > 100 µM

Ask: What value of TGI has been recorded for this entry: O=C1c2cc3c(cc2NC(c2ccccc2F)C1O)OCO3 (stereo not given)
Reply: > 83.9 µM

Ask: What value of TGI has been recorded for this entry: C=CCOCC1C2CCC3(OCCO3)C21 (stereo not given)
Reply: > 100 µM

Ask: What value of TGI has been recorded for this entry: Clc1ccc(-c2cn3c(nc4ccccc43)c(-c3ccccc3)n2)cc1
Reply: > 100 µM
